# System: Escherichia coli TOP10;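 note: peptides expressed intracellularly from a pBAD plasmid library in pooled LB shake-flask culture, induced with 0.3% L-arabinose, DNA abundance read by NGS, three biological replicates, DESeq2 with apeglm shrinkage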
# test details: shrunken log2 fold change of peptide-encoding DNA abundance (4.5 h post-induction vs induction); higher = less antimicrobial activity (less host growth inhibition)
# test context: time post-induction: 4.5 h; library: site-saturation at positions 5, 18, 19, 20
Classify by shrunken log2 fold change. Ranges: range 1 (below -0.2), range 2 (-0.2 to below 0.5), range 3 (0.5 or more)

| sequence code | qualitative label |
| --- | --- |
| RRIRPRPPRLPRPRPRPPGPPRP | range 3 |
| RRIRIRPPRLPRPRPRPTTMPRP | range 1 |
| RRIRKRPPRLPRPRPRPSADPRP | range 2 |

[in] Using the reported shrunken log2 fold change, which band applies to RRIRYRPPRLPRPRPRPLSKPRP ?
[out] range 1

[in] Textbook exercise: identify the category of the sequence given here, RRIRCRPPRLPRPRPRPLEDPRP , according to its measured value.
[out] range 2

[in] Bin? RRIRDRPPRLPRPRPRPTFFPRP
[out] range 3

[in] Sort into band: RRIRHRPPRLPRPRPRPKLGPRP
[out] range 1

[in] Which category does the recorded shrunken log2 fold change put RRIRYRPPRLPRPRPRPELDPRP in?
[out] range 2

Ref: the supplement of paper PMC9112550
